Origin of measurements: patent US20040167103A1

# measurementTarget: cytosolic AR prepared from rat ventral prostates (Rattus norvegicus)
# Sequence (P15207 1-902): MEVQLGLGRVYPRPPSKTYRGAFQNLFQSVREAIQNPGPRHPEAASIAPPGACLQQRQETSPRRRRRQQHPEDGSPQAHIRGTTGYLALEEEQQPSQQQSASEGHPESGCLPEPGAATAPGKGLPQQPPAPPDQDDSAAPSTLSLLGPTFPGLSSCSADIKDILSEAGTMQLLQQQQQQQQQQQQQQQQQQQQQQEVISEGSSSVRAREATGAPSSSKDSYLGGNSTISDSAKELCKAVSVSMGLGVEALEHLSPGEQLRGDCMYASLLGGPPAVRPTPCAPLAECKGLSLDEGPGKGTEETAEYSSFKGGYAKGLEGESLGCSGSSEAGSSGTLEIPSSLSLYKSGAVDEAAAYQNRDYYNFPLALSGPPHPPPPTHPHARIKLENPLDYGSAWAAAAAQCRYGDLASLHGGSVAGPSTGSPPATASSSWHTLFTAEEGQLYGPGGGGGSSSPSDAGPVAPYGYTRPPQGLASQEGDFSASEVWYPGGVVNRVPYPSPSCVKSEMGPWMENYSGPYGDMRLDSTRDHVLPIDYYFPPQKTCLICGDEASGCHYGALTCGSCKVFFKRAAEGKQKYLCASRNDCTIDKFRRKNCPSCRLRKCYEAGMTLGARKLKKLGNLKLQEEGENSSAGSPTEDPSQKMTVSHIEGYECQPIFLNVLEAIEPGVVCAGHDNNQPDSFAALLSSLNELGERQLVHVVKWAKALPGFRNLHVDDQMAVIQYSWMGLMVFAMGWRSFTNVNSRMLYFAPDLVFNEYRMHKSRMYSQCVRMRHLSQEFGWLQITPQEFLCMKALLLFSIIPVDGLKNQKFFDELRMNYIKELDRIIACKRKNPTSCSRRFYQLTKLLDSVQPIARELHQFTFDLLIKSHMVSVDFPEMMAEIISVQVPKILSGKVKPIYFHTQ
observedProperty: pKd
# log scale: pKd equals minus log10 of the concentration in mol/L

Incoming: Look up pKd for this compound: C[C@@H]1CC2=CC(=O)CC[C@@H]2[C@H]2CC[C@@]3(C)[C@@H](CC[C@]3(C)O)[C@@H]21
Outgoing: 9.72
